- SUBJECT OF TEST: Human DP-IV (Homo sapiens, UniProt P27487)
- Sequence (P27487 whole entry): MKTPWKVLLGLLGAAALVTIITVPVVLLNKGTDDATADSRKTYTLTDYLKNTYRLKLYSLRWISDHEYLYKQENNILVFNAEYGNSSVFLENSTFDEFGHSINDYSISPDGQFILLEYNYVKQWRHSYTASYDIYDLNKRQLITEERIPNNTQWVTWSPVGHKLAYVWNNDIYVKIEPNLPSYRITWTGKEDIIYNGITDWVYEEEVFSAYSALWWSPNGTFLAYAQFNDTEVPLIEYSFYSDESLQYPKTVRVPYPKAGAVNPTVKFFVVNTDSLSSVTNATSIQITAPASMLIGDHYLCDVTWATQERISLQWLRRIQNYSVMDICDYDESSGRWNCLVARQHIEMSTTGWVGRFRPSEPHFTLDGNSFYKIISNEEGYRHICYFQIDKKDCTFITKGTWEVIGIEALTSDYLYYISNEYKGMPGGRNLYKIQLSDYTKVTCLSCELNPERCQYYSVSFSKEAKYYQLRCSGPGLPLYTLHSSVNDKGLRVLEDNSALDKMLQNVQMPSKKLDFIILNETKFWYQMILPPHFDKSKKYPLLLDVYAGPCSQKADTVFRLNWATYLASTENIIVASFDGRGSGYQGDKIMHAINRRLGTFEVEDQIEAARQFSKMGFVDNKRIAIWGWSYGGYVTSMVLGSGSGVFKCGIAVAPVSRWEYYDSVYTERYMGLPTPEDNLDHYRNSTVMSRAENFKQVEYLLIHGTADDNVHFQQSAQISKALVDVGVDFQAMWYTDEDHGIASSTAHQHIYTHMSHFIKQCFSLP
ENDPOINT: Ki (nM)
Kindly provide the numeric value in nM only, without the unit symbol.

input: Could you tell me which Ki is on file for N#C[C@@H]1CCCN1C(=O)[C@@H](N)CCCNC(=O)c1cnccn1 [Example 1B] ?
output: 0.4

Every entry's value here was drawn from patent US20040209891A1.
